test: chemical genetic growth profiling, strain panel (AID 1159580);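 note: tested at 20 µM; growth read once vehicle control cultures reached saturation at 30 °C; 1 = growth at the plate median or of vehicle wells; lower values mean less growth of the strain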; conditions: S. cerevisiae deletion strains, growth OD, locus YIL066C, strain RNR3, hits give low values
Out of some 5,500 compounds screened, about 2,000 (36%) were called active. Roughly 18% stayed inconclusive and do not appear here. The list shows a part of the results.

| molecule | normalized growth |
| --- | --- |
| COc1cc(-c2coc3cc(OC)c(OC)c(OC)c3c2=O)cc(OC)c1OC | 1 |
| C/C1=C\CCC(=O)C2CC(C)(C)C2CC1 (centres undefined) | 1.02 |
| C#CCCCCCCCCCCCC(=O)CC(O)COC(C)=O (centres undefined) | 0.722 |
| COc1ccc2c(c1)CCC(c1ccccc1)=C2c1ccc(OCCN2CCCC2)cc1 | 0.553 |
| COC(=O)[C@@H]1OC(=O)[C@H]2O[C@@]23[C@@]1(C)CCC1[C@@]2(C)CCC(=O)C(C)(C)C2C[C@@H](OC(C)=O)[C@]13C (some centres undefined) | 0.984 |
| O=C1OC(c2ccc(O)cc2)(c2ccc(O)cc2)c2ccccc21 | 0.996 |
| NC(=O)c1cccc(N)c1 | 1 |
| C#CCCCCCCCCCCCC(O)CC(O)COC(C)=O (centres undefined) | 0.885 |
| CC1(C)NC(=O)N(c2ccc([N+](=O)[O-])c(C(F)(F)F)c2)C1=O | 1.02 |
| COC(=O)C1=CCCN(C)C1 | 0.982 |
| CC(=O)OCC(OC(C)=O)C(OC(C)=O)C(OC(C)=O)C(OC(C)=O)C(COC(C)=O)OC(C)=O (centres undefined) | 1.02 |
| C=C1CCC(C2CC(=O)OC2=O)C(=O)CCC2C1CC2(C)C (centres undefined) | 1.01 |
| CC(C)COCC(CN(Cc1ccccc1)c1ccccc1)N1CCCC1 (centres undefined) | 0.809 |
| C=C1CCC(=O)C(C)CCC2C1CC2(C)C (centres undefined) | 1.02 |
| CC(C)C(=O)Nc1ccc([N+](=O)[O-])c(C(F)(F)F)c1 | 0.986 |
| CC(=O)OCC[C@H](C)CCC=C(C)C | 1.01 |
| CCCNC1CCc2nc(N)sc2C1 (centres undefined) | 1.02 |
| O=C(O)c1ccccc1-c1c2cc(Br)c(=O)cc-2oc2[c]([Hg])c(O)c(Br)cc12 | 0.0637 |
| O=C(Cn1ccnc1[N+](=O)[O-])NCCO | 1.01 |
| C=C1CCC2C(CC2(C)C)C(=C)CC/C1=N\O (centres undefined) | 0.908 |
| C=CCCCCCCCCCCCC(O)CC(O)COC(C)=O (centres undefined) (tested in a mixture with another compound) | 0.921 |
| CC(C)C(C)/C=C/C(C)C1CCC2C3=CC=C4CC(O)CCC4(C)C3CCC21C (centres undefined) | 0.97 |
| CC(=O)OCC(COC(C)=O)OC(C)=O | 1.03 |
| CC(C)NCC(O)c1cc(O)cc(O)c1 (centres undefined) | 0.997 |
